# Tested on: thymidylate synthase (TS) protein
# protocolText: Immunoblot analysis of TS protein (free and ITC-bound), Odyssey quantitation
# Assay type: cell-based, human
# cond: RKO cells, ssiRNA 1 nM, 48 hr; normalized to free TS protein in mock-transfected cells (LF2000) set to 100%; mean ± S.D., 6 experiments
[5FU] = 5-fluorouracil base, with d sugar it is 5-fluoro-2'-deoxyuridine (FdU); d = 2'-deoxy (DNA); r = 2'-OH (RNA)
measure: Free TS (%)

substance	Free TS (%)
TS6-1xF-dU/dA: ssiRNA with a single FdU residue at the 4th position in the sense strand; SEQ ID NO: 5 and 6 (chain 1 GGAUAUUGUCAGUCUUUAGGUUUUU; chain 2 CCUAAAGACUGACAAUAUCCAAAAA; FdU at position 4 of sense strand, chemistry not fully specified)	27.3 ± 8.3%

Query: Free TS (%) for TS6-FdU/dA: TS-targeted ssiRNA, all 3′-end overhang dU of sense strand replaced with FdU (5 FdU); SEQ ID NO: 9 and 10 (chain 1 GGAUAUUGUCAGUCUUUAGGUUUUU; chain 2 CCUAAAGACUGACAAUAUCCAAAAA; chain 1: sugars from the 5' end r20 d5, [5FU] at 21, 22, 23, 24, 25, backbone not given here; chain 2: sugars from the 5' end r20 d5, backbone not given here) ?
Response: 29.8 ± 12.0%

Query: Same read-out for Mis-dU/dA: unmodified mismatched control ssiRNA; SEQ ID NO: 19 and 20 (chain 1 GGAUACUGCCAAUCUCUAGGUUUUU; chain 2 CCUAGAGAUUGGCAGUAUCCAAAAA; chain 1: sugars from the 5' end r20 d5, backbone and T or U not given here; chain 2: sugars from the 5' end r20 d5, backbone not given here) [reference compound] ?
Response: 90.1 ± 14.0%

These data points were gathered from patent US9096853B2.
